system: HeLa; test: WST-1 cytotoxicity, HeLa; assay type: cell-based; settings: Homo sapiens, alone, 24 h, read-out: Calculated IC50 values
measurement-kind: pIC50
Reminder that pIC50 means the negative base-10 logarithm of the concentration expressed in mol/L.

Incoming: Entry N[C@@H](C[Se][Se]C[C@H](N)C(=O)O)C(=O)O [Selenocystine, selenocystine] : reported pIC50 = ?
Outgoing: 5.24

----------
system: MCF-7; assay: WST-1 cytotoxicity, MCF-7; type: cell-based, human; details: Homo sapiens, MCF7, read-out: Calculated IC50 values of sodium selenite
measurement-kind: IC50 (µM)
Supply the numeric figure in µM, leaving out any unit text.

Incoming: Kindly state the measured IC50 obtained for O=[Se](O)O [Sodium selenite, sodium selenite] with MCF-7.
Outgoing: 8.55

----------
system: SHSY5-SY; test: WST-1 cytotoxicity, SHSY5-SY; type: cell-based; details: Homo sapiens, 24 h, read-out: Calculated IC50 values
measurement-kind: IC50 (µM)
Supply the numeric figure in µM, leaving out any unit text.

Incoming: Entry O=[Se](O)O [Sodium selenite, sodium selenite] : reported IC50 = ?
Outgoing: 40.3

The reported numbers originate from patent US20240299401A1.
